# SYSTEM TESTED: UniProtKB O60885
# PROTOCOL: BRD4(1) AlphaScreen competitive inhibition assay
METRIC NAME: IC50 (µM)

[
  {
    "SMILES DATA": "C#CCn1ncc(Nc2ccc(CN)cc2)c(Cl)c1=O",
    "UNITS": "µM",
    "NUMERIC RESULT": 71
  }
]

====

# SYSTEM TESTED: PCAF (Homo sapiens)
# Construct: off-target class I (PCAF, GCN5L2, CECR2,) and class IV (BRD7, BRD9) bromodomains and BRD4(1)
# Sequence (Q92831 723-827 limits assumed): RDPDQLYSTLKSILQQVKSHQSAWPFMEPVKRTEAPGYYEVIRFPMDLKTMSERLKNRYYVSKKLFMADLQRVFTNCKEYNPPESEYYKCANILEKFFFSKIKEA
# PROTOCOL: BROMOscan, PCAF
pKd: −log10 of the molar value.

[
  {
    "COMPOUND": "C#CCn1ncc(Nc2ccc(CN)cc2)c(Cl)c1=O [Compound 24]",
    "SYSTEM TESTED": "PCAF (Homo sapiens)",
    "pKd": 6.64
  }
]

====

# SYSTEM TESTED: BPTF bromodomain (Homo sapiens, UniProt Q12830)
# Construct: 30 nM for His9-tagged BPTF bromodomain and 50 nM for the biotinylated peptide were used
# PROTOCOL: BPTF AlphaScreen competitive inhibition assay
Each entry below carries its recorded IC50.

[
  {
    "MOLECULE": "C#CCn1ncc(Nc2ccc(CN)cc2)c(Cl)c1=O [Compound 24]",
    "IC50 / µM": 0.38
  },
  {
    "MOLECULE": "CN(C)CCc1ccc(Nc2c(Cl)cnn(C)c2=O)cc1 [Compound 20]",
    "IC50 / µM": 10
  }
]

====

# SYSTEM TESTED: BPTF (Homo sapiens)
# Construct: Kd values for BZ1 with BPTF and off-target class I (PCAF, GCN5L2, CECR2,) and class IV (BRD7, BRD9) bromodomains; purchased
# PROTOCOL: BROMOscan, BPTF
# Format: binding
pKd: −log10 of the molar value.

[
  {
    "COMPOUND": "C#CCn1ncc(Nc2ccc(CN)cc2)c(Cl)c1=O [Compound 24]",
    "pKd": 6.70
  }
]
